Reference for the values: ChEMBL document CHEMBL1144702

# Protocol description: Inhibition of tubulin polymerization in presence of microtubule-associated proteins at 60 uM
Parameter: inhibition. Scope: all listed entries.

>  <Structure notation>
CC(C)=CCc1[nH]c2ccccc2c1C[C@H]1NC(=O)[C@@H]2CCCN2C1=O

>  <inhibition>
< 2%

$$$$
>  <Structure notation>
CC(C)=CCc1[nH]c2ccccc2c1C[C@@H]1NC(=O)[C@H]2CCCN2C1=O

>  <inhibition>
< 2%

$$$$
>  <Structure notation>
COc1ccc2c(C[C@H]3NC(=O)[C@@H]4CCCN4C3=O)c(CC=C(C)C)[nH]c2c1

>  <inhibition>
< 2%

$$$$
>  <Structure notation>
COc1ccc2c(C[C@@H]3NC(=O)[C@H]4CCCN4C3=O)c(CC=C(C)C)[nH]c2c1

>  <inhibition>
< 2%

$$$$

* * *

# Protocol description: Cytotoxicity against human […]
# Format: functional
Parameter: GI50. Scope: all listed entries.

>  <Structure notation>
COc1ccc2c(C[C@@H]3NC(=O)[C@@H]4CCCN4C3=O)c(CC=C(C)C)[nH]c2c1

>  <GI50>
> 100 µM

$$$$
>  <Structure notation>
COc1ccc2c(C[C@H]3NC(=O)[C@H]4CCCN4C3=O)c(CC=C(C)C)[nH]c2c1

>  <GI50>
> 25 µM

$$$$
>  <Structure notation>
CC(C)=CCc1[nH]c2ccccc2c1C[C@H]1NC(=O)[C@H]2CCCN2C1=O

>  <GI50>
11.9 µM

$$$$
>  <Structure notation>
COc1ccc2c(C[C@@H]3NC(=O)[C@H]4CCCN4C3=O)c(CC=C(C)C)[nH]c2c1

>  <GI50>
> 100 µM

$$$$

* * *

# System: UO-31
# Protocol description: Cytotoxicity against human UO31 cells
# Type: functional

>  <Structure notation>
COc1ccc2c(C[C@H]3NC(=O)[C@H]4CCCN4C3=O)c(CC=C(C)C)[nH]c2c1

>  <GI50>
> 25 µM

$$$$
>  <Structure notation>
COc1ccc2c(C[C@@H]3NC(=O)[C@H]4CCCN4C3=O)c(CC=C(C)C)[nH]c2c1

>  <GI50>
> 100 µM

$$$$
>  <Structure notation>
CC(C)=CCc1[nH]c2ccccc2c1C[C@@H]1NC(=O)[C@@H]2CCCN2C1=O

>  <GI50>
> 100 µM

$$$$
>  <Structure notation>
COc1ccc2c(C[C@@H]3NC(=O)[C@@H]4CCCN4C3=O)c(CC=C(C)C)[nH]c2c1

>  <GI50>
> 100 µM

$$$$
